Measured Metric: melting point

{"Structure": "CC1=C(Nc2ccc(Nc3ccccc3C)cc2Cl)CCCC1=O", "Measured Metric": "melting point", "Reported": "68 to 70 °C"}
{"Structure": "CC1=C(Nc2cc3ccccc3cn2)CCCC1=O", "Measured Metric": "melting point", "Reported": "205 to 208 °C"}
{"Structure": "CC(=O)Nc1ccc(Cl)c(NC2=C(C)C(=O)CC2)c1", "Measured Metric": "melting point", "Reported": "265 to 268 °C"}

[in] Given CC1=C(Nc2cc(C(=O)Nc3ccccc3C)c3ccccc3c2)CCCC1=O , state its recorded melting point.
[out] 249 to 250 °C (dec.)

[in] Given CC1=C(Nc2cc(N)ccc2Cl)CCCC1=O , state its recorded melting point.
[out] 182 to 184 °C

[in] Given CC1=C(Nc2cc(NC(=O)/C=C\C(=O)O)ccc2Cl)CCCC1=O , state its recorded melting point.
[out] 182 to 185 °C

[in] Given CC1=C(Nc2cccc(Cl)c2C(=O)O)CCC1=O , state its recorded melting point.
[out] 277 to 280 °C

Source: patent US9884806B2
